Molecular target: CD73 activity in U138-MG cells (Homo sapiens (Human), UniProt P21589)
Sequence (P21589 27-574): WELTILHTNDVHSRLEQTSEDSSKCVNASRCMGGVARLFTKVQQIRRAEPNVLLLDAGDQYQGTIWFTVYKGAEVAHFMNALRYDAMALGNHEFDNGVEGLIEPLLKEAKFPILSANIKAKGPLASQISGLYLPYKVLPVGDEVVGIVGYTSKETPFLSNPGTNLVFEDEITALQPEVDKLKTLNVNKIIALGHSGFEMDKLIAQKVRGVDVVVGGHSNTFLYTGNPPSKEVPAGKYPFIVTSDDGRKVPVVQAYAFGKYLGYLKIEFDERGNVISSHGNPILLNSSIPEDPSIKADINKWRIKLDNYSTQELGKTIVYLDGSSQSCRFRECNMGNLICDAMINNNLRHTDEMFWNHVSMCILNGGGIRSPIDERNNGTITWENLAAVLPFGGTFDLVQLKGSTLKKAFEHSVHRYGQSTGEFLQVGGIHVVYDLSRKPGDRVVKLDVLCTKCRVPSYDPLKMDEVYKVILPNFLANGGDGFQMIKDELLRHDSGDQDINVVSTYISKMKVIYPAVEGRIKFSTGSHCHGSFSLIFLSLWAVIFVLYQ
Assay: U138-MG inhibition assay (inorganic phosphate from AMP, PiColorLock Gold)
Settings: 100 μM AMP, 30 min pre-incubation, 1 hour at 37° C.
MEASURED ATTRIBUTE: IC50 (nM)

>  <COMPOUND>
CN1CCOC(COC2CCN(c3ncnc4sc(-c5c[nH]c(=O)[nH]c5=O)cc34)C2)C1 (stereo not drawn) [Example 4.4]

>  <IC50 / nM>
76.6

$$$$
>  <COMPOUND>
O=c1[nH]cc(-c2cc3c(N4CCC(OCCN5CCC(F)(F)CC5)C4)ncnn3c2)c(=O)[nH]1 (stereo not drawn) [Example 10.1]

>  <IC50 / nM>
61.1

$$$$

P = O=c1[nH]cc(-n2cc3c(N4C[C@@H]5COC[C@H]5C4)ncnc3n2)c(=O)[nH]1 [Example 13.10]
Q = CC1(C)CN(c2ncnc3oc(-c4c[nH]c(=O)[nH]c4=O)cc23)CC1(F)F [Example 7.1]
Lab note: check whether P or Q has the lower measured IC50. API: response body contains the label of the selected item.
Q

A = CC1(C)CN(c2ncnc3nn(-c4c[nH]c(=O)[nH]c4=O)cc23)CC1(F)F [Example 13]
B = COC1CN(c2ncc(F)c3nn(-c4c[nH]c(=O)[nH]c4=O)cc23)CC1(F)F (stereo not drawn) [Example 26.2]
Lab note: check whether A or B has the lower measured IC50. API: response body contains the label of the selected item.
A
(A: 1.8 nM, B: 12 nM)
